target-or-system: T1, recombinant human VEGF165 (human, UniProt P15692-4 27-191)
T1 construct: also called hVEGF165; rhVEGF165
T1 sequence (P15692 other isoform, or with tags, fused parts or gaps limits assumed): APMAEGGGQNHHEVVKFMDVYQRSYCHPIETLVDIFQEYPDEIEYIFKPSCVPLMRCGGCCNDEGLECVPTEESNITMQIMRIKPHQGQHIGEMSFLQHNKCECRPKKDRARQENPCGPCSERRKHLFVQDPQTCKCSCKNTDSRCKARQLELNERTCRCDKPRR
experimental-details: hVEGF165/hVEGFR2-Fc competition ELISA
pIC50: −log10 of the molar value.
Classification field: Y = pIC50 at or over 10; N = pIC50 under 10.

Use the examples below as a reference point.
binder: VEGFBII025 (VHH, biparatopic bivalent VHH in one chain; also called VEGFBII10E07-40GS-23B04) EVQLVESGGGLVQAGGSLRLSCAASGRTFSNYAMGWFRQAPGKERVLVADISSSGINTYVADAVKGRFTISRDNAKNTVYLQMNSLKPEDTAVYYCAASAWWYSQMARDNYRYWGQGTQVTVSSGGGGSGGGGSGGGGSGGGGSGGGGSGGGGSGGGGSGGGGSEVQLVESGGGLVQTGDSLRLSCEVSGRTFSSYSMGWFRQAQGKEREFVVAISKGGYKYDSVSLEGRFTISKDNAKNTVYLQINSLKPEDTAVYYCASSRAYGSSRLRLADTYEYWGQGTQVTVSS
assigned-category: N

binder: VEGFBII010 (VHH, bivalent VHH in one chain; also called VEGFBII23B04-35GS-23B04; homodimeric VEGFBII23B04) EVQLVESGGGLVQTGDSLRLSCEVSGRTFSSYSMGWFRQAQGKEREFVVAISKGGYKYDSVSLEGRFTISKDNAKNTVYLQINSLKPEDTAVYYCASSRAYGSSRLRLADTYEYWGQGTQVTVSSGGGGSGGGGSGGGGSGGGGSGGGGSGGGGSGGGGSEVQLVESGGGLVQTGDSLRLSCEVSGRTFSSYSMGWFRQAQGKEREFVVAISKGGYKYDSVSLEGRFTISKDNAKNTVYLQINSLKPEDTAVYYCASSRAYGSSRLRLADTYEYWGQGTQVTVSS
assigned-category: Y

q: Determine whether measured pIC50 meets or exceeds 10 for VEGFBII021 (VHH, biparatopic bivalent VHH in one chain; also called VEGFBII23B04-40GS-5B05) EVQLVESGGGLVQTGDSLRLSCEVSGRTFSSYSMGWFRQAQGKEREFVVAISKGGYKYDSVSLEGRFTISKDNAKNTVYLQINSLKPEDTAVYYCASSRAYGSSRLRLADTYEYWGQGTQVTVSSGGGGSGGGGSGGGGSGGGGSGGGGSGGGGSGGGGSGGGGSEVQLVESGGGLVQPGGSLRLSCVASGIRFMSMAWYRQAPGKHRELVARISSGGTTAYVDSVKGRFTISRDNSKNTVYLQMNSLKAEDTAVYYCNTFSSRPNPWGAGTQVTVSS
a: N

q: Determine whether measured pIC50 meets or exceeds 10 for VEGFBII024 (VHH, biparatopic bivalent VHH in one chain; also called VEGFBII23B04-40GS-86H09; VEGFBI024) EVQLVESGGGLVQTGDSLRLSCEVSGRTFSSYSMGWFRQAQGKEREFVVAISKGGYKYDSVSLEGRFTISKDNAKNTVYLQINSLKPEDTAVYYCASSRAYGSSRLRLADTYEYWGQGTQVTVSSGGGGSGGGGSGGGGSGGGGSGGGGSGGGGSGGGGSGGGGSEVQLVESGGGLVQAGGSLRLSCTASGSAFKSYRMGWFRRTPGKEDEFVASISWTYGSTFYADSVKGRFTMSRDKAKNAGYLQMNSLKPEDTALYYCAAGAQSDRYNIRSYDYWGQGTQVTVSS
a: N

q: Determine whether measured pIC50 meets or exceeds 10 for VEGFBII023 (VHH, biparatopic bivalent VHH in one chain; also called VEGFBII23B04-40GS-10E07; VEGFBI023) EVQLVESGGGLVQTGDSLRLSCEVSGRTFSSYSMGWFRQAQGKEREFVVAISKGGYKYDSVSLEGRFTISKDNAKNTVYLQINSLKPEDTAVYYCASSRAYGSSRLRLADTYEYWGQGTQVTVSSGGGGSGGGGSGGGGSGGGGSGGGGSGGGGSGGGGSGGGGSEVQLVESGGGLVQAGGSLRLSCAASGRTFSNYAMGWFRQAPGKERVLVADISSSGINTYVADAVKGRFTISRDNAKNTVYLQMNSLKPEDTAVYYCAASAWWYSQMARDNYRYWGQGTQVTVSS
a: N
